These data points were gathered from PubChem BioAssay (NCI).

Tested on: SNB-19 CNS
assay_info: NCI tumour cell line growth inhibition, 48 h; in the data active means GI50 below about 0.43 µM; inactive means the rest
Respond using exactly one of the listed classes: active, inactive

Qu. Recorded test outcome, item Nc1nc2ccc(-c3nc4ccc5[nH]ncc5c4c4c3CCC4)cc2s1
Ans. active

Qu. Likewise for N#CC(C#N)=C/C=C(\Cl)c1ccc(Cl)cc1 ?
Ans. inactive

Qu. Likewise for O=C(NCC1CC1)c1ccc(-c2cccc(C(=O)NC3CC3)c2)cc1 ?
Ans. inactive

Qu. Likewise for CCN1C(=O)N(CC)C2C1NN=c1s/c(=C\c3ccc(Cl)cc3Cl)c(=O)n12 (stereo not given) ?
Ans. active

Qu. Likewise for N#C[Se]Cc1cc(-c2ccccc2)n(-c2ccc(S(N)(=O)=O)cc2)n1 ?
Ans. inactive

Qu. Likewise for CC1=C([Se]CC(OC(=O)CC[Se]c2ccccc2)C(=O)NC(C)(C)C)C(=O)c2ccccc2C1=O (stereo not given) ?
Ans. inactive

Qu. Likewise for CC(=O)c1c(C(F)(F)F)n([O-])c2ccccc2[n+]1=O ?
Ans. inactive

Qu. Likewise for O=S(=O)(/N=c1\scc(-c2ccccc2)n1-c1ccccc1)c1ccc(N2N=C3c4ccccc4CC3C2c2ccc(Cl)cc2)cc1 (stereo not given) ?
Ans. inactive

Qu. Likewise for CC1=C2C(=C[C@@](C)(CO)[C@@H]2OC(=O)N(C)CCN(C)C(=O)OC(C)(C)C)C(=O)[C@](C)(O)C12CC2 ?
Ans. inactive

Qu. Likewise for O=C(Nc1cccc(Cl)c1)Nn1cnnc1 ?
Ans. inactive

Qu. Likewise for C/C(=N/O)c1cccc(Nc2cc(-n3nnc4ccccc43)nc3ccccc23)c1 ?
Ans. inactive

Qu. Likewise for CC(CO)Nc1cc(-c2[nH]c3cccnc3c2-c2ccc(F)cc2)ccn1 (stereo not given) ?
Ans. inactive

Qu. Likewise for c1ccc(-c2nc(-c3ccccn3)nc(-c3ccccn3)n2)nc1 ?
Ans. inactive

Qu. Likewise for O=C1/C(=C/c2ccc([N+](=O)[O-])cc2)CN(C(=O)CCN2CCC(=NO)CC2)C/C1=C\c1ccc([N+](=O)[O-])cc1 ?
Ans. inactive

Qu. Likewise for Cc1c2cnccc2c(C)c2c1c1cc(C#N)ccc1n2C ?
Ans. active
